tested-on: MMP-13 (Homo sapiens, UniProt P45452)
Counter-ions that a name gives are not always drawn.
# note: boundary value 500 nM maps to class 0; IC50 below it maps to class 1

molecule=CC#CCOc1ccc(S(=O)(=O)CC2(C(=O)NO)CCN(C(=O)OCc3ccccc3)CC2)cc1 tested_on="MMP-13 (Homo sapiens, UniProt P45452)" label="class 1"
molecule=CC#CCOc1ccc(S(=O)(=O)CC2(C(=O)NO)CCN(C(=N)N)CC2)cc1 tested_on="MMP-13 (Homo sapiens, UniProt P45452)" label="class 0"
molecule=CC#CCOc1ccc(S(=O)(=O)CC2(C(=O)NO)CCN(C(=O)OC(C)(C)C)CC2)cc1 tested_on="MMP-13 (Homo sapiens, UniProt P45452)" label="class 1"

Take the molecule CC#CCOc1ccc(S(=O)(=O)CC2(C(=O)NO)CCN(C(=O)NCC)CC2)cc1 and say whether its IC50 is less than 500 nM.
class 0

And for CC#CCOc1ccc(S(=O)(=O)C2(C(=O)NO)CCN(Cc3ccc(Cl)cc3)CC2)cc1 ?
class 1

And for CC#CCOc1ccc(S(=O)(=O)C2(C(=O)NO)CCCN(CC)C2)cc1 (centres unmarked) ?
class 1

And for CC#CCOc1ccc(S(=O)(=O)CC2(C(=O)NO)CCN(CC#CCO)CC2)cc1 ?
class 1

And for CC#CCOc1ccc(S(=O)(=O)CC2(C(=O)NO)CCN(CC#CC)CC2)cc1 [Example 37, hydrochloride] ?
class 0

And for CC#CCOc1ccc([S+]([O-])C2(C(=O)NO)CCN(Cc3ccc(Br)cc3)CC2)cc1 (centres unmarked) [Example 82, hydrochloride] ?
class 1

And for CC#CCOc1ccc(S(=O)(=O)C2(C(=O)NO)CCN(C(=O)c3ccccc3)CC2)cc1 ?
class 1

And for CC#CCOc1ccc(S(=O)(=O)CC2(C(=O)NO)CCN(C(=O)Nc3ccccc3)CC2)cc1 ?
class 0

And for CC#CCOc1ccc(S(=O)(=O)C2(C(=O)NO)CCN(Cc3ccc(OC)cc3)CC2)cc1 ?
class 1

And for CC#CCOc1ccc(S(=O)(=O)CC2(C(=O)NO)CCN(S(=O)(=O)c3ccccc3)CC2)cc1 ?
class 1

And for CC#CCOc1ccc(S(=O)(=O)CC2(C(=O)NO)CCN(C(=O)OCCCCCCCC)CC2)cc1 ?
class 1

And for CC#CCOc1ccc(S(=O)(=O)C2(C(=O)NO)CCN(C(=O)c3cccs3)CC2)cc1 ?
class 1

And for CC#CCOc1ccc(S(=O)(=O)C2(C(=O)NO)CCOCC2)cc1 ?
class 1
